Test system: pediatric T-ALL patient cell samples
Experiment: Viability assays with T-ALL patient samples
Format: cell-based, human
Settings: Homo sapiens, 72 h, patient sample 491, three-day assay
Measured quantity: IC50 (nM)
Enter your answer as a number in nM; do not include the unit.

So what does the record say about IC50 for COc1cccc2c1C(=O)c1c(O)c3c(c(O)c1C2=O)C[C@@](O)(C(C)=O)C[C@@H]3O[C@H]1C[C@H](N)[C@H](O)[C@H](C)O1 ?
80

---

System: patient-derived colorectal carcinoma organoids
Assay: Organoids drug sensitivity and viability assay
Assay type: cell-based, human
Conditions: Homo sapiens, 72 h, organoid p14, three days; read-out: IC50
Procedure: The establishment and characterization of the human colon cancer organoids has been described. […] Organoids were dissociated by TryPLE Express treatment and filtered using a 40 μm nylon cell strainer (Falcon). […] Compounds were added four days after plating and 72 hours later viability was determined using Cell-Titer Glo 3D Cell Viability Assay (Promega, Madison USA). […]
Measured quantity: pIC50
// pIC50 is dimensionless: -log10 of concentration (M)

Requested field: pIC50. Item: c1nc2nc(Nc3ccc(N4CCOCC4)cc3)nc(NC3CCCCC3)c2[nH]1 [reversine]
6.31

Reference source: paper PMC5503534
